Source listed as the supplement of paper PMC9233669.

Attribute: self-aminoacylation
- Test system: biotinyl-Met-oxazolone
- test name: self-aminoacylation, catalytic enhancement (BMO) (fold over background); higher = more active; k-Seq, kA / k0A0; sequences stand for … in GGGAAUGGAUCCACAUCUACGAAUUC…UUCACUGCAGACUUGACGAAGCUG
Variants at the floor of the assay were thinned out.
Enter the number alone.

Recorded results for 5 sequences are shown here.
{"sequence content": "AAGCUUGCUAACAGUCGCAAG [Fam3.1 aminoacylation ribozyme variant]", "readout value": 2.4}
{"sequence content": "CUACUUCAAACUAUUGGUCUG [Fam1A.1 aminoacylation ribozyme variant]", "readout value": 0.897}
{"sequence content": "AUUCACCUAGGUCCUCGAGUG [Fam2.2 aminoacylation ribozyme variant]", "readout value": 1.36}
{"sequence content": "AAGUUUGCUAAUAGUGGCGAG [Fam3.1 aminoacylation ribozyme variant]", "readout value": 0.875}
{"sequence content": "GCGCACUUCAAGCAAUCGGUC [Fam1B.1 aminoacylation ribozyme variant]", "readout value": 2.04}

Could you now consider this next sequence?
Inquiry: // returns reported self-aminoacylation for input CUACUUCAAUCAAUCGGUUUG [Fam1A.1 aminoacylation ribozyme variant]
Reply text: 0.886
